# PROTOCOL_SUMMARY: Caco-2 cell permeability
# TEST_PARAMETERS: human
Criterion: Papp B→A strictly under 30 ×10⁻⁶ cm/s. Met: 1 (yes). Not met: 0 (no).

COMPOUND	LABEL_VALUE
N#C[C@@H]1CSCN1C(=O)CNC(=O)c1ccnc2ccc(N3CC(F)(CF)C3)cc12	1 (yes)
C[C@@]1(O)CCN(c2ccc3nccc(C(=O)NCC(=O)N4CSC[C@H]4C#N)c3c2)C1	1 (yes)
Cc1ncccc1-c1ccc2nccc(C(=O)NCC(=O)N3CSC[C@H]3C#N)c2c1	1 (yes)
N#C[C@@H]1CSCN1C(=O)CNC(=O)c1ccnc2ccc(-c3ccnc(F)c3)cc12	0 (no)
CC1(C)Cc2c(-c3ccc4nccc(C(=O)NCC(=O)N5CSC[C@H]5C#N)c4c3)cnn2C1	1 (yes)
N#C[C@@H]1CSCN1C(=O)CNC(=O)c1ccnc2ccc(N3CCOC(F)(F)C3)cc12	1 (yes)
CC1(C)CCCN(c2ccc3nccc(C(=O)NCC(=O)N4CSC[C@H]4C#N)c3c2)C1=O	1 (yes)
N#C[C@@H]1CSCN1C(=O)CNC(=O)c1ccnc2ccc(N3CC(C(F)F)C3)cc12	1 (yes)
N#C[C@@H]1CSCN1C(=O)CNC(=O)c1ccnc2ccc(N3C[C@H]4C[C@@H]3CO4)cc12	1 (yes)
N#C[C@@H]1CSCN1C(=O)CNC(=O)c1ccnc2ccc(N3CCCCC3)cc12	1 (yes)
N#C[C@@H]1CSCN1C(=O)CNC(=O)c1ccnc2ccc(N3CC(CF)C3)cc12	1 (yes)
C[C@]1(F)CCN(c2ccc3nccc(C(=O)NCC(=O)N4CSC[C@H]4C#N)c3c2)C1 (mixture of isomers)	0 (no)
N#C[C@@H]1CSCN1C(=O)CNC(=O)c1ccnc2ccc(N3CCCCO3)cc12	1 (yes)
C[C@@H]1CN(c2ccc3nccc(C(=O)NCC(=O)N4CSC[C@H]4C#N)c3c2)CCO1	1 (yes)
N#C[C@@H]1CSCN1C(=O)CNC(=O)c1c(F)cnc2ccc(N3CCOCC3)cc12	0 (no)
COC1(C)CCN(c2ccc3nccc(C(=O)NCC(=O)N4CSC[C@H]4C#N)c3c2)CC1	0 (no)

---

# PROTOCOL_SUMMARY: Kinetic solubility
# TEST_PARAMETERS: kinetic from dmso stock, Solubility, kinetic solubility; n = 1 or average of n = 2-3
MEASURE_NAME: solubility (µM)

ENTRY_SMILES	MEASURE_NAME	UNIT_TEXT	MEASURED
CC1(C)CCN(c2ccc3nccc(C(=O)NCC(=O)N4CSC[C@H]4C#N)c3c2)C1=O	solubility	µM	830
N#C[C@@H]1CSCN1C(=O)CNC(=O)c1ccnc2ccc(N3CC(C4CC4)C3)cc12	solubility	µM	5.3
CC1(C)OCCN(c2ccc3nccc(C(=O)NCC(=O)N4CSC[C@H]4C#N)c3c2)C1=O	solubility	µM	170
CC(F)(F)C1CN(c2ccc3nccc(C(=O)NCC(=O)N4CSC[C@H]4C#N)c3c2)C1	solubility	µM	40

---

# PROTOCOL_SUMMARY: Metabolic stability in rat hepatocytes (rHep)
# TEST_PARAMETERS: n = 1 or geometric mean of n = 2-3
# rHep CLint values compiled below
MEASURE_NAME: rHep CLint

COMPOUND	MEASURED
N#C[C@@H]1CSCN1C(=O)CNC(=O)c1ccnc2ccc(N3CCC(C(F)(F)F)CC3)cc12 [Example 39]	31 μL/min/1E6
N#C[C@@H]1CSCN1C(=O)CNC(=O)c1ccnc2ccc(N3CC(OC(F)F)C3)cc12 [Example 136]	4.8 μL/min/1E6
N#C[C@@H]1CSCN1C(=O)CNC(=O)c1ccnc2ccc(-n3ccc(-c4ccccc4)c3)cc12 [Example 218]	18 μL/min/1E6
N#C[C@@H]1CSCN1C(=O)CNC(=O)c1ccnc2ccc(N3CC(C4CC4)C3)cc12 [Example 145]	10 μL/min/1E6
N#C[C@@H]1CSCN1C(=O)CNC(=O)c1ccnc2ccc(N3CCOC[C@@H]3C(F)(F)F)cc12 (single isomer, unassigned) [Example 84]	26 μL/min/1E6
N#C[C@@H]1CSCN1C(=O)CNC(=O)c1ccnc2ccc(N3CC(COC(F)(F)F)C3)cc12 [Example 130]	11 μL/min/1E6
CC1(C)Cc2c(-c3ccc4nccc(C(=O)NCC(=O)N5CSC[C@H]5C#N)c4c3)cnn2C1 [Example 123]	7.1 μL/min/1E6
C[C@H]1CCCN(c2ccc3nccc(C(=O)NCC(=O)N4CSC[C@H]4C#N)c3c2)C1=O (single isomer, unassigned) [Example 203]	2.9 μL/min/1E6
CC1(CC(F)(F)F)CN(c2ccc3nccc(C(=O)NCC(=O)N4CSC[C@H]4C#N)c3c2)C1 [Example 131]	16 μL/min/1E6
CC1(C)CCCN(c2ccc3nccc(C(=O)NCC(=O)N4CSC[C@H]4C#N)c3c2)C1=O [Example 15]	11 μL/min/1E6
CCC1(O)CN(c2ccc3nccc(C(=O)NCC(=O)N4CSC[C@H]4C#N)c3c2)C1 [Example 154]	2.7 μL/min/1E6
N#C[C@@H]1CSCN1C(=O)CNC(=O)c1ccnc2ccc(N3CCCC[C@@H](F)C3)cc12 [Example 59]	91 μL/min/1E6
CC1(C)CCN(c2ccc3nccc(C(=O)NCC(=O)N4CSC[C@H]4C#N)c3c2)CC1 [Example 33]	44 μL/min/1E6
N#C[C@@H]1CSCN1C(=O)CNC(=O)c1ccnc2ccc(N3CC(F)(C(F)(F)F)C3)cc12 [Example 143]	13 μL/min/1E6
C[C@@H]1COC[C@@H](C)N1c1ccc2nccc(C(=O)NCC(=O)N3CSC[C@H]3C#N)c2c1 [Example 105]	18 μL/min/1E6

---

# SYSTEM_UNDER_TEST: human dipeptidylpeptidase 8 (hDPP8) (Homo sapiens (Human), UniProt Q6V1X1)
# Sequence (Q6V1X1 whole entry): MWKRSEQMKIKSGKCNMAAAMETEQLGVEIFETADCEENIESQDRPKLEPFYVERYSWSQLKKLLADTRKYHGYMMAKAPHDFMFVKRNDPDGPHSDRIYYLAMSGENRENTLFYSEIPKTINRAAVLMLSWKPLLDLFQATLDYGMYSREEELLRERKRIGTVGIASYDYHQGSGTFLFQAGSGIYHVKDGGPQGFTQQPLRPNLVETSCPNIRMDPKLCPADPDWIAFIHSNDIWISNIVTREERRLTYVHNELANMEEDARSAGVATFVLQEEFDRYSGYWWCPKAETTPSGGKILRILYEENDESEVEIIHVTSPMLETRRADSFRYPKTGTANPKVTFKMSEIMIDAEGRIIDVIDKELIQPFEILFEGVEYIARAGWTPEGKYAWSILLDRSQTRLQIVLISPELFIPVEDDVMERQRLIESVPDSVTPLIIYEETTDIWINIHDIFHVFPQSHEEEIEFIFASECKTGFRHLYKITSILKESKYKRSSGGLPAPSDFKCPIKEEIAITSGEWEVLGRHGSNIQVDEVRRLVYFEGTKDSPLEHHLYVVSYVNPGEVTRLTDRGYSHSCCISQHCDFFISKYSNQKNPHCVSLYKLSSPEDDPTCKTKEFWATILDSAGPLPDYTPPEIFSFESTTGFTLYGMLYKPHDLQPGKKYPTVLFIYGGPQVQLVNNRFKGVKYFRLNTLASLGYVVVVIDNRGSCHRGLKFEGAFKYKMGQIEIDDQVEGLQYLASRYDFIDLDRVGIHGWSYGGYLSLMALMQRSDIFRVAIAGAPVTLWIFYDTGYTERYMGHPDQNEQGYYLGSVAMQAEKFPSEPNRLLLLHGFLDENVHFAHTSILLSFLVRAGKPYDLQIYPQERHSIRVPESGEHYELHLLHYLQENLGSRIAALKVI
pIC50: −log10 of the molar value.

ENTRY_SMILES	SYSTEM_UNDER_TEST	pIC50
C[C@@H]1CN(c2ccc3nccc(C(=O)NCC(=O)N4CSC[C@H]4C#N)c3c2)C[C@H](C)O1	human dipeptidylpeptidase 8 (hDPP8) (Homo sapiens (Human), UniProt Q6V1X1)	5.18

---

# PROTOCOL_SUMMARY: Metabolic stability in human liver microsomes (HLM)
# TEST_PARAMETERS: human, HLM CLint, n = 1 or average of n = 2-3
Criterion: microsomal CLint strictly under 40 µL/min/mg. Met: condition met. Not met: condition not met.

COMPOUND	LABEL_VALUE
N#C[C@@H]1CSCN1C(=O)CNC(=O)c1ccnc2ccc(N3CCCC[C@H](F)C3)cc12	condition not met
N#C[C@@H]1CSCN1C(=O)CNC(=O)c1ccnc2ccc(N3CC(F)(c4ccccc4)C3)cc12	condition not met
CC1(C)CN(c2ccc3nccc(C(=O)NCC(=O)N4CSC[C@H]4C#N)c3c2)CCC1(F)F	condition not met
CCC1(O)CN(c2ccc3nccc(C(=O)NCC(=O)N4CSC[C@H]4C#N)c3c2)C1	condition met
N#C[C@@H]1CSCN1C(=O)CNC(=O)c1ccnc2ccc(N3C[C@@H](F)[C@@H](F)C3)cc12	condition met
CC1(C)CCN(c2ccc3nccc(C(=O)NCC(=O)N4CSC[C@H]4C#N)c3c2)CC1	condition not met
CC[C@H]1COCCN1c1ccc2nccc(C(=O)NCC(=O)N3CSC[C@H]3C#N)c2c1	condition not met
N#C[C@@H]1CSCN1C(=O)CNC(=O)c1ccnc2ccc(-c3ccc(C(F)F)nc3)cc12	condition met
N#C[C@@H]1CSCN1C(=O)CNC(=O)c1ccnc2ccc(N3CCCC[C@H]3CF)cc12	condition not met
N#C[C@@H]1CSCN1C(=O)CNC(=O)c1ccnc2ccc(N3CCC[C@H]3C(F)(F)F)cc12	condition not met
N#C[C@@H]1CSCN1C(=O)CNC(=O)c1ccnc2ccc(N3CC(CCC(F)(F)F)C3)cc12	condition not met
COC[C@@H]1CCCN1c1ccc2nccc(C(=O)NCC(=O)N3CSC[C@H]3C#N)c2c1	condition not met
CC1(C)CCN(c2ccc3nccc(C(=O)NCC(=O)N4CSC[C@H]4C#N)c3c2)C1=O	condition met
C[C@@H]1CN(c2ccc3nccc(C(=O)NCC(=O)N4CSC[C@H]4C#N)c3c2)C[C@H](C)[C@]1(C)O	condition not met
C[C@@H]1CCN(c2ccc3nccc(C(=O)NCC(=O)N4CSC[C@H]4C#N)c3c2)CCO1	condition not met
N#C[C@@H]1CSCN1C(=O)CNC(=O)c1ccnc2ccc(-n3ccc(-c4ccccc4)c3)cc12	condition met
C[C@H]1CCCN(c2ccc3nccc(C(=O)NCC(=O)N4CSC[C@H]4C#N)c3c2)C1=O (single isomer, unassigned)	condition met
C[C@]1(F)CCN(c2ccc3nccc(C(=O)NCC(=O)N4CSC[C@H]4C#N)c3c2)C1 (mixture of isomers)	condition met
CCC1(C)CN(c2ccc3nccc(C(=O)NCC(=O)N4CSC[C@H]4C#N)c3c2)C1	condition not met
Cc1noc(C)c1-c1ccc2nccc(C(=O)NCC(=O)N3CSC[C@H]3C#N)c2c1	condition not met
N#C[C@@H]1CSCN1C(=O)CNC(=O)c1ccnc2ccc(N3CCCC[C@@H](F)C3)cc12	condition not met
N#C[C@@H]1CSCN1C(=O)CNC(=O)c1ccnc2ccc(N3CC(c4ccc(F)cc4)C3)cc12	condition not met
N#C[C@@H]1CSCN1C(=O)CNC(=O)c1ccnc2ccc(-c3cccnc3)cc12	condition met
N#C[C@@H]1CSCN1C(=O)CNC(=O)c1ccnc2ccc(N3CC(F)(C4CC4)C3)cc12	condition not met
N#C[C@@H]1CSCN1C(=O)CNC(=O)c1ccnc2ccc(N3CC(F)(F)OC(F)(F)C3)cc12	condition not met
N#C[C@@H]1CSCN1C(=O)CNC(=O)c1ccnc2ccc(N3CCOC(F)(F)C3)cc12	condition not met
N#C[C@@H]1CSCN1C(=O)CNC(=O)c1ccnc2ccc(N3CC(CCF)C3)cc12	condition met
N#C[C@@H]1CSCN1C(=O)CNC(=O)c1ccnc2ccc(N3CC(OC(F)(F)F)C3)cc12	condition met
N#C[C@@H]1CSCN1C(=O)CNC(=O)c1ccnc2ccc(N3CC(F)C3)cc12	condition met
CC1(C)CCN(c2ccc3nccc(C(=O)NCC(=O)N4CSC[C@H]4C#N)c3c2)C1	condition not met
